- Study target: CaV2.2 (Homo sapiens, UniProt Q00975)
- Construct: expressed in transfected cells; host or cells: HEK293
- Sequence (Q00975 whole entry): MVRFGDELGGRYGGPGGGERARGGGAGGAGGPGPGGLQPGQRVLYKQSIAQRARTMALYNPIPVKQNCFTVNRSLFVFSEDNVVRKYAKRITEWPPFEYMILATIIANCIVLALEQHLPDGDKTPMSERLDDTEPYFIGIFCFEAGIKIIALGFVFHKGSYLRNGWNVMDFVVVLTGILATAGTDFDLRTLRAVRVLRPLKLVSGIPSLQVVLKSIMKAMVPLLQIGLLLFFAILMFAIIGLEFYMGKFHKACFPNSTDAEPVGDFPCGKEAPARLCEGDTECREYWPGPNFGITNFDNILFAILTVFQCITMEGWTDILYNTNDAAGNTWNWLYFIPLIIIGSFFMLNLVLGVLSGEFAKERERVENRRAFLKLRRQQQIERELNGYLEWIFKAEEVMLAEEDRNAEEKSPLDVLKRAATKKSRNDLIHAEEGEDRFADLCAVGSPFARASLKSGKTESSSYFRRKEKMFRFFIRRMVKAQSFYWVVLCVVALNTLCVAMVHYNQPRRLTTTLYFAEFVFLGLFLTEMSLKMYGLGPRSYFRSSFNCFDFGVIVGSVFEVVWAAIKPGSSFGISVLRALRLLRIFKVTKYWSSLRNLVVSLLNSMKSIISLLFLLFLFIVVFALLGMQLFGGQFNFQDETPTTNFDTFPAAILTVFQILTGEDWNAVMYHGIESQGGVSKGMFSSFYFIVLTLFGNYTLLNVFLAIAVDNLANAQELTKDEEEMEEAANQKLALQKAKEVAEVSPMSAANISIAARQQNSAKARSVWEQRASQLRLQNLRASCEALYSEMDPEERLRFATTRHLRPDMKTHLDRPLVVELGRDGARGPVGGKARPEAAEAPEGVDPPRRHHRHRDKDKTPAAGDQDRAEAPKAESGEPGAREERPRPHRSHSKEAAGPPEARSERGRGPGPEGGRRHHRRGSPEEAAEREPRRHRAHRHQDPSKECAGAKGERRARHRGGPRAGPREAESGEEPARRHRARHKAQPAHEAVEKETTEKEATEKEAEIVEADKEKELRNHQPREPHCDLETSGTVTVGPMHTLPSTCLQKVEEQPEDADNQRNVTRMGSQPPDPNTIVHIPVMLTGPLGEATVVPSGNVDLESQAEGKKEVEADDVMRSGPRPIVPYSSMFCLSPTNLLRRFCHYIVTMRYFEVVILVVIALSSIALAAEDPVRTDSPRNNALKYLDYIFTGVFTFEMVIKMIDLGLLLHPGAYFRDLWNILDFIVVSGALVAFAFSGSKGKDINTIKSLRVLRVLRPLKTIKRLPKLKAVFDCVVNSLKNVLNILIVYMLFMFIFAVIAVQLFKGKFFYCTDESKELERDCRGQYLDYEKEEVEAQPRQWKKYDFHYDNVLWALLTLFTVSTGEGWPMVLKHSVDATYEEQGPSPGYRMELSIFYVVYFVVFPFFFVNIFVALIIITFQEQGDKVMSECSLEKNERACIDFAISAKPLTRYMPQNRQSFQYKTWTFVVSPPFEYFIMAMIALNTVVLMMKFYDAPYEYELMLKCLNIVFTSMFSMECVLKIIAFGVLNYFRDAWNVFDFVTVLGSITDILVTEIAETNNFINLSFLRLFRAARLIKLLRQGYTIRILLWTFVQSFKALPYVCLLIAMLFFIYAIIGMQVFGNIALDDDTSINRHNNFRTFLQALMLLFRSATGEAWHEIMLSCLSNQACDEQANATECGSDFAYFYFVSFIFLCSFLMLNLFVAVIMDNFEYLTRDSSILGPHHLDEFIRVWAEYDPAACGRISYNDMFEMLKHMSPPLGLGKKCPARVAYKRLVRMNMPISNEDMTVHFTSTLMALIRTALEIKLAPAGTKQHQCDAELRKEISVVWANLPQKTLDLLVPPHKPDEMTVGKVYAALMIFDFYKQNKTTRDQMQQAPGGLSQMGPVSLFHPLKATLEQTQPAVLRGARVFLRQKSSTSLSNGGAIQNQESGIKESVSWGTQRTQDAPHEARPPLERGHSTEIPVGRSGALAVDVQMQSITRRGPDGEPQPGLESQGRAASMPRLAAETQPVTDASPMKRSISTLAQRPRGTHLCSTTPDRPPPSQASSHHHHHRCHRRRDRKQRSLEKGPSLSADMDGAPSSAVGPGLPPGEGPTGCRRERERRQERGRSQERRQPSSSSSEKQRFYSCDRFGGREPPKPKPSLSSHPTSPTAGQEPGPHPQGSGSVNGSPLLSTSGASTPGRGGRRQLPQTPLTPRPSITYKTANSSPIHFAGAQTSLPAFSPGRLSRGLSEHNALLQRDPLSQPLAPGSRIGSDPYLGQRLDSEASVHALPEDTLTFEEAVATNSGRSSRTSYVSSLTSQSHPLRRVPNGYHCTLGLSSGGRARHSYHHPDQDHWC
- Sequence (P54284 whole entry partner): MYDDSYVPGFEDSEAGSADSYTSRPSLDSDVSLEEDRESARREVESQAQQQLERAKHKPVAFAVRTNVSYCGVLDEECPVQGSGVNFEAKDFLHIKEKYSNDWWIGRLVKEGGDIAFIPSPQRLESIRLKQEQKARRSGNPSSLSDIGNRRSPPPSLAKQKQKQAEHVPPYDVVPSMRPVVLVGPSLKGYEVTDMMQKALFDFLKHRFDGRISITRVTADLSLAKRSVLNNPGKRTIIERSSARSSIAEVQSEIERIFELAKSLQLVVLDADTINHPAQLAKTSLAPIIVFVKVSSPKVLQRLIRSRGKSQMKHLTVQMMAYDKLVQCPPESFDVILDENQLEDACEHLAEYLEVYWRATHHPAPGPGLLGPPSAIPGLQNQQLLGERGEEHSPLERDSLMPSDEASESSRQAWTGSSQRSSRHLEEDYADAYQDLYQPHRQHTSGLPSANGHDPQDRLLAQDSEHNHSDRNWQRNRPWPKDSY
- Sequence (P54289 25-946 partner limits assumed): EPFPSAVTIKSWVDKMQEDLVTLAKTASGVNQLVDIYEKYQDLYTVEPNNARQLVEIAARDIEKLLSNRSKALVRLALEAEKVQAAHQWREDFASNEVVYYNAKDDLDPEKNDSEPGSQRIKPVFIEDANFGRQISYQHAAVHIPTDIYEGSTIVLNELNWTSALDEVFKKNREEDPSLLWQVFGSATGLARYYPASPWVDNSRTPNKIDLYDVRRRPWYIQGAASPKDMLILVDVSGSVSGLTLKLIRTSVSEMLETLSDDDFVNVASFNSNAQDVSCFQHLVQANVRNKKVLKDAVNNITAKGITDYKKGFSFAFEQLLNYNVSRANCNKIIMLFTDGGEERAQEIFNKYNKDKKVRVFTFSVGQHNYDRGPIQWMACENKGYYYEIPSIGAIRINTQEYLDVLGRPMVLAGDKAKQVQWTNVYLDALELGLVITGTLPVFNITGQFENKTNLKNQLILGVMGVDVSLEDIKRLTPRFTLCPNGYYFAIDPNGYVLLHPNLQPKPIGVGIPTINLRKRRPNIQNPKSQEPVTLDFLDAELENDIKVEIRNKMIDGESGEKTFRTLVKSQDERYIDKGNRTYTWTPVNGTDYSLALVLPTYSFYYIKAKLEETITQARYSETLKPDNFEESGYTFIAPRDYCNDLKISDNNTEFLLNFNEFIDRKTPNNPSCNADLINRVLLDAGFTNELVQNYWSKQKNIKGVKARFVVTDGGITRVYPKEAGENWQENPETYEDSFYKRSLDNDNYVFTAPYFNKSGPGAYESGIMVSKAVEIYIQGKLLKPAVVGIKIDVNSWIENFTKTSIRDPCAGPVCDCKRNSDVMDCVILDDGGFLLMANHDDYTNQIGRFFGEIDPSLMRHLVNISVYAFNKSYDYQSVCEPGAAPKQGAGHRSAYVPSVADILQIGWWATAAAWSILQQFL
- Sequence (P54289 947-1103 partner limits assumed): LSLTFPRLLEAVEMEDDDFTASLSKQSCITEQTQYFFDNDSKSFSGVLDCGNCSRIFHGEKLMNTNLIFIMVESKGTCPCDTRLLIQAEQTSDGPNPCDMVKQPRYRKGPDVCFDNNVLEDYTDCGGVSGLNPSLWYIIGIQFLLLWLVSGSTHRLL
- Assay overview: VIPR optical membrane potential assay with electrical stimulation
- Format: cell-based
- Details: Table 3, biological assay data; read-out: IC50
pIC50: −log10 of the molar value.
This listing pairs compounds with measured pIC50.
Endpoint label: pIC50

>>> experimental_value("O=C(NC1CCCC1)c1cc2cc(S(=O)(=O)N3CCCCCC3)ccc2o1")
"> 5.30"
>>> experimental_value("Cc1c(C(=O)NC2CC2)oc2ccc(S(=O)(=O)Nc3nncs3)cc12")
"> 4.70"
>>> experimental_value("CC1CC(C)CN(S(=O)(=O)c2ccc3oc(C(=O)NC4CCCC4)cc3c2)C1 (stereo not drawn)")
"> 5.30"
>>> experimental_value("Cc1c(C(=O)N(C)C)oc2ccc(S(=O)(=O)N3CCCCC3)cc12")
"> 4.70"
>>> experimental_value("Cc1c(C(=O)N2CCN(C)CC2)[nH]c2ccc(S(=O)(=O)N3CC(C)CC(C)C3)cc12 (stereo not drawn)")
"4.70 to 5.30"
>>> experimental_value("Cc1c(C(=O)NCC2CCCCC2)oc2ccc(S(=O)(=O)N3CCC(C)CC3)cc12")
"4.70 to 5.30"
